- assay_method_text: Stability of compounds (1), remaining rate by HPLC after 3 days (Test Example 3)
- Type: physicochemical
- condition: 4° C.

- compound: "Cn1cc(NC(=O)CC[S+](C)C)cc1-c1nc2cc(C(=O)Nc3ccc(N(CCCl)CCCl)cc3)ccc2[nH]1 [IODIDE]"
  remaining at 72 h / %: 99

###

- assay_method_text: Stability of compounds (1), remaining rate by HPLC after 3 days (Test Example 3)
- Assay type: physicochemical
- condition: 50° C.
- Protocol: In order to compare stabilities of the compounds, remaining rates of compounds were obtained by incubating the compounds at about 4° C. and 50° C. for 3 days and measuring comparative peak areas on HPLC (Table 4).

- molecular_string: "Cn1cc(NC(=O)CC[S+](C)C)cc1-c1nc2cc(C(=O)Nc3ccc(N(CCCl)CCCl)cc3)ccc2[nH]1"
  remaining at 72 h, %: 100
